Below, each entry is listed with its recorded inhibition at 20000 µM.
- MEASUREMENT_TARGET: LmjIPCS (inositol phosphorylceramide synthase from L. major) (Leishmania major)
- Sequence (E9AFX2 whole entry): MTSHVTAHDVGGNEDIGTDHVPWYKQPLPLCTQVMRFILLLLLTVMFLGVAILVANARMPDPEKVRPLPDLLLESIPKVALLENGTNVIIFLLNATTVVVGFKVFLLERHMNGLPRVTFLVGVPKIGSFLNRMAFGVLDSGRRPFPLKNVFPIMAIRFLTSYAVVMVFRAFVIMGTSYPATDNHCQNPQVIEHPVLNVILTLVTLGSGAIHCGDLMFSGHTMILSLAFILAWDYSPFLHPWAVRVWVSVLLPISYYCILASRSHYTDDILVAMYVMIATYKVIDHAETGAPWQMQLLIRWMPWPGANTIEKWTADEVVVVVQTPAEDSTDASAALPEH
- EXPERIMENTAL_PROTOCOL: biochemical
- Assay type: biochemical
- EXPERIMENTAL_SETUP: read-out: 20mM inhibition LmjIPCS
RECORDED_ENDPOINT: inhibition at 20000 µM (%)

[[record]]
compound = "NNc1nncc2ccccc12 [HYDRALAZINE]"
recorded_endpoint = "inhibition at 20000 µM"
recorded_result = 15

[[record]]
compound = "Nc1c2ccccc2nc2ccccc12 [AMINACRINE]"
recorded_endpoint = "inhibition at 20000 µM"
recorded_result = -11

[[record]]
compound = "CC[C@H]1OC(=O)C[C@@H](O)[C@H](C)[C@@H](O[C@@H]2O[C@H](C)[C@@H](O[C@H]3C[C@@](C)(O)[C@@H](O)[C@H](C)O3)[C@H](N(C)C)[C@H]2O)[C@@H](CC=O)C[C@@H](C)C(=O)/C=C/C(C)=C/[C@@H]1CO[C@@H]1O[C@H](C)[C@@H](O)[C@@H](OC)[C@H]1OC [TYLOSIN]"
recorded_endpoint = "inhibition at 20000 µM"
recorded_result = 5

[[record]]
compound = "CC[C@H]1CN2CCc3cc(OC)c(OC)cc3[C@@H]2C[C@@H]1C[C@H]1NCCc2cc(OC)c(OC)cc21 [EMETINE]"
recorded_endpoint = "inhibition at 20000 µM"
recorded_result = 11

[[record]]
compound = "O=C(O)c1ccccc1Nc1cccc(C(F)(F)F)c1 [FLUFENAMIC ACID]"
recorded_endpoint = "inhibition at 20000 µM"
recorded_result = -16

[[record]]
compound = "COc1ccc2c3c1O[C@H]1C[C@@H](O)C=C[C@@]31CCN(C)C2 [GALANTHAMINE]"
recorded_endpoint = "inhibition at 20000 µM"
recorded_result = 2.62

[[record]]
compound = "O=C1C=C2C(=CCOC2O)O1 (stereo not shown) [PATULIN]"
recorded_endpoint = "inhibition at 20000 µM"
recorded_result = 0.294

[[record]]
compound = "CO[C@H]1/C=C/O[C@@]2(C)Oc3c(C)c(O)c4c(O)c(c(/C=N/N5CCN(C)CC5)c(O)c4c3C2=O)NC(=O)/C(C)=C\\C=C\\[C@H](C)[C@H](O)[C@@H](C)[C@@H](O)[C@@H](C)[C@H](OC(C)=O)[C@@H]1C [RIFAMPIN]"
recorded_endpoint = "inhibition at 20000 µM"
recorded_result = 27

[[record]]
compound = "S=C=NCc1ccccc1 [BENZYL ISOTHIOCYANATE]"
recorded_endpoint = "inhibition at 20000 µM"
recorded_result = 6

[[record]]
compound = "Cn1c(=O)c2[nH]cnc2n(C)c1=O [THEOPHYLLINE]"
recorded_endpoint = "inhibition at 20000 µM"
recorded_result = 11

[[record]]
compound = "CO[C@H]1[C@H](O)[C@H](O[C@H]2CC[C@@]3(C=O)[C@H](CC[C@@H]4[C@@H]3CC[C@]3(C)[C@@H](C5=CC(=O)OC5)CC[C@]43O)C2)O[C@@H](C)[C@@H]1O [PERUVOSIDE]"
recorded_endpoint = "inhibition at 20000 µM"
recorded_result = 12

[[record]]
compound = "C[N+]1(C)[C@@H]2C[C@@H](OC(=O)[C@H](CO)c3ccccc3)C[C@H]1[C@@H]1O[C@@H]12 [METHSCOPOLAMINE BROMIDE]"
recorded_endpoint = "inhibition at 20000 µM"
recorded_result = 10

[[record]]
compound = "Cc1ccc(C)c(OCCCC(C)(C)C(=O)O)c1 [GEMFIBROZIL]"
recorded_endpoint = "inhibition at 20000 µM"
recorded_result = -1.79

[[record]]
compound = "Cc1cccc(C)c1N=C1NCCCS1 [XYLAZINE]"
recorded_endpoint = "inhibition at 20000 µM"
recorded_result = -14

[[record]]
compound = "COc1ccc(OC)c(C(O)C(C)N)c1 (stereo not shown) [METHOXAMINE]"
recorded_endpoint = "inhibition at 20000 µM"
recorded_result = 24

[[record]]
compound = "[H]/N=C(/N)NS(=O)(=O)c1ccc(N)cc1 [SULFAGUANIDINE]"
recorded_endpoint = "inhibition at 20000 µM"
recorded_result = -1.62

